Where these numbers come from: patent US20250041412A1

biological target: T1, HLA-A2 molecule (HLA-A*02:01), recombinant monomer (human); assay: HLA-A2 monomer stabilisation and tetramer formation with synthetic peptide, flow cytometry with PE anti-b2m; positive control CMV peptide
T1 construct: Peptide-free monomer that is incubated with a synthetic peptide for 48 h at 18 C; also called HLA-A2 allele; HLA-A2 monomers
Here, each record is paired with measured percentage of fluorescence relative to positive control (HLA-A2 tetramer formation) data.

Worked set:
{"columns": ["binder", "result"],
 "data": [
  ["FLIVAEILI (Synthetic peptide) [chimeric transcript-derived peptide FLIVAEILI]", "> 50%"],
  ["AMDGKELSL (Synthetic peptide) [chimeric transcript-derived peptide AMDGKELSL]", "> 50%"],
  ["MLMKTVWQA (Synthetic peptide; also called peptide 80) [chimeric transcript-derived peptide MLMKTVWQA]", "> 50%"]
]}

Okay, now this binder:
Request: Data request, read-out percentage of fluorescence relative to positive control (HLA-A2 tetramer formation), for RLLHLESFL (Synthetic peptide) [chimeric transcript-derived peptide RLLHLESFL]
Result: > 50%
